The threshold is 2. Values of logP beneath it are tagged rule met; values meeting or exceeding it are tagged rule not met.

Worked examples, 4 compounds total:
COMPOUND	CLASSIFICATION
CCS(=O)c1nc(C)cc(C)c1C#N (centres undefined)	rule met
CC(=O)c1sc(S(C)=O)c(C#N)c1-c1ccc(Cl)cc1 (centres undefined)	rule not met
CC(=O)c1sc(S(C)=O)c(-c2ccc(Cl)cc2)c1N (centres undefined)	rule not met
CCS(=O)c1sc(C(C)=O)c(C)c1[N+](=O)[O-] (centres undefined)	rule not met

Lab log: compare recorded logP with 2; is it strictly lower for CCS(=O)c1sc(C#N)cc1C#N (centres undefined) ?
rule met

Lab log: compare recorded logP with 2; is it strictly lower for CCCS(=O)c1sc(C#N)c(Cl)c1C#N (centres undefined) ?
rule not met
